Just for reference, patent US20230002361A1 is where these values come from.

target: IRAK4 (Homo sapiens, UniProt Q9NWZ3); construct: with 0.1 nM IRAK4, 1.6 μM of biotinylated peptide substrate and 10 μM ATP; assay: IRAK4 MSD Biochemical Assay (1 mM ATP, 2 h); details: room temperature, read-out: IRAK4 MSD Biochemical Assay (1 mM ATP, 2 h) IC50
Sequence (Q9NWZ3 whole entry): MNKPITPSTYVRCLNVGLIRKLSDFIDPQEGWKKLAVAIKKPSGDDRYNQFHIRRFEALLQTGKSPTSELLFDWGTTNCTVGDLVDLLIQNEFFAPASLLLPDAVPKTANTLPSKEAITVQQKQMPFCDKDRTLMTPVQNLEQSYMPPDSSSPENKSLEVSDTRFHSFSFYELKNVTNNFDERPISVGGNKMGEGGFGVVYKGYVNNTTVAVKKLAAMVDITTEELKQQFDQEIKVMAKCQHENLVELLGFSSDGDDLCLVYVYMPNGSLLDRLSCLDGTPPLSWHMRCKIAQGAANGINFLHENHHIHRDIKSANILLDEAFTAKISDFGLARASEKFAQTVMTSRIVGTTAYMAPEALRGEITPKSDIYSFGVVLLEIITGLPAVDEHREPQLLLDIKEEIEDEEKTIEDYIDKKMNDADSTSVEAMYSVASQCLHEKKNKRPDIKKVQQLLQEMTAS
Where a name gives a salt, the structure may show the parent alone.
Field: IC50. Provide a value for each of the compounds that follow.
Report as a plain number; the unit nM is understood.

Documented IC50 of CC(C)Oc1cc2nn([C@@H]3CCOC3)cc2cc1C(=O)Nc1cccc(C(F)F)n1 (single isomer, unassigned) : 2.1

Documented IC50 of CC(C)Oc1cc2nn(C3COC3)cc2cc1C(=O)Nc1cccc(C(F)F)n1 : 6.2

Documented IC50 of Cc1cnc2c(NC(=O)c3cc4cn(C56COC(C)(C5)C6)nc4cc3OC3CCC3)cnn2c1 [Example 56, Trifluoroacetate] : 0.5

Documented IC50 of COc1cccc(NC(=O)c2cc(C)c3nn(CC4CCOC4)cc3c2)n1.O=C(O)C(F)(F)F (stereo not shown) [Example 9, Trifluoroacetate] : 2740

---

Field: efflux ratio at 120 min, 1 μM. Provide a value for each of the compounds that follow.
molecular target: MDR1 (P-gp) (Homo sapiens, UniProt P08183); construct: host or cells: MDCK cells; test: MDR1-MDCK assay (efflux ratio); type: in vitro ADME; conditions: human, MDCK-MDR1, 1 μM compound, 120 minutes incubation; read-out: MDR1-MDCK Efflux Ratio; (B-A/A-B)
Sequence (P08183 whole entry): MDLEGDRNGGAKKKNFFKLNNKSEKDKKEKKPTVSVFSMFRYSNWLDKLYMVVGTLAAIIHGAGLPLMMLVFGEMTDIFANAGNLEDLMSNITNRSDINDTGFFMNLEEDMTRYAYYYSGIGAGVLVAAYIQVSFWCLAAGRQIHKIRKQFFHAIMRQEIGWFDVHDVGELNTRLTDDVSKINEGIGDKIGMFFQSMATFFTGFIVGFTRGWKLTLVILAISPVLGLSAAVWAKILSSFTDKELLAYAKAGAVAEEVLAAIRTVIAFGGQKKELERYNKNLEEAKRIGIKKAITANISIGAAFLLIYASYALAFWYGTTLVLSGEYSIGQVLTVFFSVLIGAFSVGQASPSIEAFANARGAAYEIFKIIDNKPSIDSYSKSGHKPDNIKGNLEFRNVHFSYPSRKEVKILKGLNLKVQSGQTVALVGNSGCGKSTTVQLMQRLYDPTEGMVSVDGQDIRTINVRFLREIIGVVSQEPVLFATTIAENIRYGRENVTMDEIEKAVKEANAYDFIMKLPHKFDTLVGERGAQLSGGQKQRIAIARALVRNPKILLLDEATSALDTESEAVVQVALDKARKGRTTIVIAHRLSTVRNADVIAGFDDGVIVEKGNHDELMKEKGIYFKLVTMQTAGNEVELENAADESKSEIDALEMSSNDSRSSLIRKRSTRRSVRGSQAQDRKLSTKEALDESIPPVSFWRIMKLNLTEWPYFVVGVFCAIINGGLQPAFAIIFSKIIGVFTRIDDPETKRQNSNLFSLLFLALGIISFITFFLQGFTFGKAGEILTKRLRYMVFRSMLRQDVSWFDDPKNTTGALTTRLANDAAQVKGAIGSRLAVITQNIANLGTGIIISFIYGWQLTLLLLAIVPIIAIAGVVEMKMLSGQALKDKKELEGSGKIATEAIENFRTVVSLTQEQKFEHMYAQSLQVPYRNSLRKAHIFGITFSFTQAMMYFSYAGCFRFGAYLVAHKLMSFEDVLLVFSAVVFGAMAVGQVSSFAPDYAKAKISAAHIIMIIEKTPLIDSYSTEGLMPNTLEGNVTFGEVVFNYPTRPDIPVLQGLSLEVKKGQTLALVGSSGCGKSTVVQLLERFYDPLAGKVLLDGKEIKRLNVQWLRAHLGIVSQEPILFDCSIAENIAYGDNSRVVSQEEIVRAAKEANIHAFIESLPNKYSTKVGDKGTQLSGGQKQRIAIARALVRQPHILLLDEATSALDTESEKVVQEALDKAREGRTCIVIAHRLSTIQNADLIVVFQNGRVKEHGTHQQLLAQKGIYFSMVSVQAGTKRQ
Note: the reply should be a number with no unit written.

Documented efflux ratio at 120 min, 1 μM of CC(C)Oc1nc2nn(C[C@@H]3CCOC3)cc2cc1C(=O)Nc1cnn2cccnc12 (single isomer, unassigned) : 3

Documented efflux ratio at 120 min, 1 μM of CC(C)Oc1cc2nn(C34COC(C)(C3)C4)cc2cc1C(=O)Nc1cccn(C)c1=O.O=C(O)C(F)(F)F : 1.2

Documented efflux ratio at 120 min, 1 μM of COc1cccc(NC(=O)c2cc3cn(C4CCOCC4)nc3cc2OC)n1.O=C(O)C(F)(F)F : 0.6

Documented efflux ratio at 120 min, 1 μM of CCOc1cc2nn(CCC(C)(C)O)cc2cc1C(=O)Nc1cccc(C(F)F)n1 : 1.9

---

Field: pIC50. Provide a value for each of the molecules that follow.
target: IRAK4 (Homo sapiens, UniProt Q9NWZ3); construct: with 0.1 nM IRAK4, 1.6 μM of biotinylated peptide substrate and 10 μM ATP; assay: IRAK4 MSD Biochemical Assay (1 mM ATP, 2 h); details: room temperature, read-out: IRAK4 MSD Biochemical Assay (1 mM ATP, 2 h) IC50
Where a name gives a salt, the structure may show the parent alone.
In textbook form, pIC50 equals minus log to base ten of the concentration in mol/L.

Documented pIC50 of CC(C)Oc1nc2nn(CCC(C)(C)O)cc2cc1C(=O)Nc1cccc(C(F)F)n1 : 9.40

Documented pIC50 of COCCCn1cc2cc(C(=O)Nc3cccc(C(F)(F)F)n3)c(OC(C)C)nc2n1.Cl [Example 60, hydrochloride] : 8.66

Documented pIC50 of CC(C)Oc1nc2nn(C3CCCOC3)cc2cc1C(=O)Nc1cnn2cccnc12 (centres unmarked) : 9.30

Documented pIC50 of COc1cc2nn(C3CCOCC3)cc2cc1C(=O)Nc1ccccn1.O=C(O)C(F)(F)F [Example 6, trifluoroacetate] : 6.73

Documented pIC50 of CC(C)Oc1cc2nn([C@H]3CCOC3)cc2cc1C(=O)Nc1cccc(C(F)F)n1 (single isomer, unassigned) : 8.66

Documented pIC50 of COc1cc2nn(CC3CCOC3)cc2cc1C(=O)Nc1ccccn1.O=C(O)C(F)(F)F (centres unmarked) [Example 2, trifluoroacetate] : 6.43

Documented pIC50 of Cl.O=C(Nc1cccc(C(F)F)n1)c1cc2cn(C3CCOCC3)nc2cc1O[C@H]1C[C@H](C(F)F)C1 [Example 48, Hydrochloride] : 9.30

Documented pIC50 of O=C(Nc1cccc(C(F)F)n1)c1cc2cn(C3CCOCC3)nc2cc1OC1CCOC1 (centres unmarked) : 8.96

Documented pIC50 of CC(C)Oc1cc2nn(C3CCOCC3)cc2cc1C(=O)Nc1cccn2nccc12.Cl [Example 71, hydrochloride] : 8.18

Documented pIC50 of COCCCn1cc2cc(C(=O)Nc3cccc(C(F)F)n3)c(OC(C)C)cc2n1.Cl [Example 26, hydrochloride] : 9.05

Documented pIC50 of CO[C@H]1C[C@H](Oc2cc3nn(C4CCOCC4)cc3cc2C(=O)Nc2cccc(C(F)F)n2)C1.Cl [Example 50, Hydrochloride] : 9.70

Documented pIC50 of CC(C)Oc1nc2nn(CC3CCOC3)cc2cc1C(=O)Nc1ccn(C(F)F)n1 (centres unmarked) : 8.19

Documented pIC50 of COc1cccc(NC(=O)c2cc3cn(CC4CCOC4)nc3cn2)n1.O=C(O)C(F)(F)F (centres unmarked) [Example 7, Trifluoroacetate] : 5.86

Documented pIC50 of COCCCn1cc2cc(C(=O)Nc3cccc(C(F)F)n3)c(OC(C)C)nc2n1.Cl [Example 62, hydrochloride] : 9.22

Documented pIC50 of O=C(Nc1ccn(C(F)F)n1)c1cc2cn(C[C@H]3CCOC3)nc2nc1OC1CCCC1 (single isomer, unassigned) : 8.42

Documented pIC50 of Cc1cnc2c(NC(=O)c3cc4cn(C[C@@H]5CCOC5)nc4nc3OC(C)C)cnn2c1 (single isomer, unassigned) : 8.82

Documented pIC50 of CC(C)Oc1c(C(=O)Nc2cccc(C(F)F)n2)cc2cn(C3CCOCC3)nc2c1Cl [Example 124, Trifluoroacetate] : 7.70

Documented pIC50 of CO[C@H]1C[C@H](n2cc3cc(C(=O)Nc4cccc(C(F)F)n4)c(OC(C)C)cc3n2)C1 : 9.40

Documented pIC50 of CC(C)Oc1nc2nn(C[C@H]3CCOC3)cc2cc1C(=O)Nc1ccn(C(F)F)n1 (single isomer, unassigned) : 8.55

Documented pIC50 of CC(C)Oc1cc2nn([C@]34CC[C@](C)(C3)OC4)cc2cc1C(=O)Nc1cnn2cccnc12 (single isomer, unassigned) : 9.40

Documented pIC50 of CC(C)Oc1cc2nn(C34CCC(C)(CC3)OC4)cc2cc1C(=O)Nc1cccn(C)c1=O [Example 58, Trifluoroacetate] : 9.40

Documented pIC50 of CC(C)Oc1cc2nn(C34COC(C)(C3)C4)cc2cc1C(=O)Nc1cnn2cc(Cl)cnc12 : 9.52

Documented pIC50 of COc1ncccc1NC(=O)c1cc2cn(CC3CCOC3)nc2nc1OC(C)C (centres unmarked) : 8.92

Documented pIC50 of CC(C)Oc1cc2nn(C3COC3)cc2cc1C(=O)Nc1cnn2cccnc12 : 7.95

Documented pIC50 of CC(C)Oc1cc2nn(CCC(C)(C)O)cc2cc1C(=O)Nc1cccc(C(F)F)n1 : 9.40

Documented pIC50 of CC(C)Oc1nc2nn(C3CCOCC3)cc2cc1C(=O)Nc1cnn2cccnc12 : 8.92

Documented pIC50 of CC12CC(n3cc4cc(C(=O)Nc5cccn(C(F)F)c5=O)c(OC5CCC5)cc4n3)(CO1)C2 [Example 84, trifluoroacetate] : 9.30

Documented pIC50 of Cn1cccc(NC(=O)c2cc3cn(C[C@H]4CCOC4)nc3nc2OC2CCCC2)c1=O (single isomer, unassigned) : 8.74

Documented pIC50 of CC(C)Oc1cc2nn([C@@H]3CCCOC3)cc2cc1C(=O)Nc1cccc(C(F)F)n1 (single isomer, unassigned) : 9.70
